# METHOD_NOTES: Concentration of compound required to inhibit agonist (SFLLRNP-NH2, at 3 uM) induced platelet aggregation by 50%
MEASURED_PARAMETER: pIC50
Remember the convention: pIC50 equals -log10 of concentration in molar.

Exam item: Identify measured pIC50 associated with CC(=O)N(C(=O)c1ccc(-c2ccccc2)cc1)C(Cc1ccc(F)cc1)C(=O)NC(Cc1ccc(N=C(N)N)cc1)C(=O)NC(CC(C)C)C(=O)NC(CCCNC(=N)N)C(N)=O (stereo unspecified)
Marked response: 6.37

---

# METHOD_NOTES: Concentration of compound required to inhibit agonist (SFLLRNP-NH2, at 3 uM) induced platelet aggregation by 50%
MEASURED_PARAMETER: IC50 (nM)
Numeric only. Scale: nM

Exam item: Quickly give me recorded IC50 for CC(=O)N(C(=O)C=Cc1cccc(Cl)c1)C(Cc1ccc(F)cc1)C(=O)NC(Cc1ccc(N=C(N)N)cc1)C(=O)NC(CC(C)C)C(=O)NC(CCCNC(=N)N)C(N)=O (stereo unspecified)
Marked response: 80

---

# METHOD_NOTES: Effective concentration for stimulation of platelet aggregation
Non-standard residues stand in square brackets, D forms with d. Residues, ends and D or L forms follow the SMILES beside them. *: point of attachment. Phe(4-guanidino) = N=C(N)Nc1ccc(C[CH](N)C(=O)O)cc1; Phe(4-F) = N[CH](Cc1ccc(F)cc1)C(=O)O; Benzoyl(4-Cl) = O=C(c1ccc(Cl)cc1)*; X5 = O=C(c1cc2ccccc2[nH]1)*
For each entry below, report its EC50 value.
Your answer should be a plain number; it is taken to be in nM.

Exam item: Recall and state the measured EC50 for CC(C)CC(NC(=O)C(Cc1ccc(N=C(N)N)cc1)NC(=O)C(Cc1ccc(F)cc1)NC(=O)c1ccc(Cl)cc1)C(=O)NC(CCCNC(=N)N)C(N)=O (configuration not stated) ({Benzoyl(4-Cl)}-[Phe(4-F)][Phe(4-guanidino)]LR-NH2; configuration not given here) .
Marked response: 3700

Exam item: Kindly indicate its recorded EC50. Item: CC(C)CC(NC(=O)C(Cc1ccc(N=C(N)N)cc1)NC(=O)C(Cc1ccc(F)cc1)NC(=O)c1cc2ccccc2[nH]1)C(=O)NC(CCCNC(=N)N)C(N)=O (configuration not stated) (X5-[Phe(4-F)][Phe(4-guanidino)]LR-NH2; configuration not given here)
Marked response: 1800

---

# METHOD_NOTES: Effective concentration for stimulation of platelet aggregation
Non-standard residues stand in square brackets, D forms with d. Residues, ends and D or L forms follow the SMILES beside them. Phe(4-F) = N[C@@H](Cc1ccc(F)cc1)C(=O)O; 2Nal = N[C@@H](Cc1ccc2ccccc2c1)C(=O)O; βAla = NCCC(=O)O
Hi there, I'd appreciate the recorded EC50 for every entry that follows.

Exam item: Output EC50 of CC(=O)N(C(=O)C=Cc1ccccc1)C(Cc1ccc(F)cc1)C(=O)NC(Cc1ccc(N)cc1)C(=O)NC(CC(C)C)C(=O)NC(CCCNC(=N)N)C(N)=O (centres undefined)
Marked response: 60 µM

Exam item: Give the reported value of EC50 for this record: CC(=O)NCCC(=O)N[C@@H](Cc1ccc(F)cc1)C(=O)N[C@@H](Cc1ccc2ccccc2c1)C(=O)N[C@@H](CC(C)C)C(=O)N[C@@H](CCCN=C(N)N)C(N)=O (Ac-[βAla][Phe(4-F)][2Nal]LR-NH2)
Marked response: 0.27 µM

Exam item: Determine from records and report EC50 for COc1ccc(C[C@H](NC(=O)[C@@H](N)CO)C(=O)N[C@@H](CC(C)C)C(=O)N[C@@H](CC(C)C)C(=O)N[C@@H](CCCN=C(N)N)C(N)=O)cc1
Marked response: 0.72 µM

Exam item: Report EC50, nothing else, for this compound: CC(=O)N(C(=O)C=Cc1ccccc1)C(Cc1ccc(F)cc1)C(=O)NC(=O)NCCCC(NC(=O)C(CC(C)C)NC(=O)C(N)CCCNC(=N)N)C(=O)O (centres undefined)
Marked response: 67 µM
